- assay-system: T1, PUF4 RNA-binding domain (Saccharomyces cerevisiae, UniProt P25339 537-888)
- T1 sequence: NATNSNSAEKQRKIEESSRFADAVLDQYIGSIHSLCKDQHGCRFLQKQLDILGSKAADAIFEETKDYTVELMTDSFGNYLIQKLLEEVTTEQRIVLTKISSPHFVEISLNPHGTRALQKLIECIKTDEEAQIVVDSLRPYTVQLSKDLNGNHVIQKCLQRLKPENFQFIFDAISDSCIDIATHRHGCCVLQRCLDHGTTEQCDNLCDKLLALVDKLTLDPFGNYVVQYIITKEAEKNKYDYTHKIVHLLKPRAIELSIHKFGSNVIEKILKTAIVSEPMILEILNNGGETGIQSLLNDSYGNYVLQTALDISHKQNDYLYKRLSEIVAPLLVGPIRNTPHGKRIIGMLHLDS
- measurement-description: Mg; RNA-MaP; 20 mM Na-HEPES pH 7.4, 30 mM KOAc, 0.75 mM MgCl2, 0.1% Tween-20, 5% glycerol, 0.1 mg/mL BSA, 2 mM DTT; 25 C; 0.0125-409.6 nM protein
- experimental-setup: tags: N-His6-TEV cleaved; C-SNAP kept, Cy3B-labelled; label: tethered on chip by stalled RNA polymerase
value-type: pKd
Give bare numbers, as −log10 of the molar value.

These recorded examples may help you get a feel for the data.
- binder: "Ie_S4_P5E.1_K5.1_C5.1_H5.1_A5.1_F5.1_[+10TT]_T5.1 (ssRNA) RNA: UUUGACAACUGAUCGUUCUUUCUUGUAUUAUUAUUUUCUUUCUCGAUCAGUUGUCUUU"
  pKd: 8.60
- binder: "UCUCUUUCUUGUAUUAUUAUCUCUCUU (ssRNA) [Id_iii_S1_P5E.5_K5.1_C5.3_H5.1_A5.1_F5.1_T5.2_[A12C]]"
  pKd: 8.22
- binder: "Id_ii_S2_P4E.2_K4.1_C4.2_[T-1C]_H4.1_A4.1_F4.1_T4.2_[G10A]_[T11G] (ssRNA) RNA: UUUGAUUAAUAUGAUAUCGUUCUUUCUCCUGUAUAUUAAGUUCUUUCUCGAUAUCAUAUUAAUCUUU"
  pKd: 8.79
- binder: "Ia_S2_P4E.1_K4.1_C4.1_H4.1_[T1A]_A4.1_F4.1_T4.1 (ssRNA) RNA: UUUGAUUAAUAUGAUAUCGUUCUUUCUAGUAUAUUAUUCUUUCUCGAUAUCAUAUUAAUCUUU"
  pKd: 6.99
- binder: "Ic_S2_P5E.1_K5.1_C5.1_H5.1_A5.1_[T6G]_[A7T]_F5.1_[T8A]_[T9C]_[A10T]_T5.1 (ssRNA) RNA: UUUGAUUAAUAUGAUAUCGUUCUUUCUUGUAUGUACUUUCUUUCUCGAUAUCAUAUUAAUCUUU"
  pKd: 7.58
- binder: "ACAAACGGCUAUAUAUAUAACAAAC (ssRNA) [Id_i_S3_P3E.6_K3.2_C3.3_[T-3G]_[C-2G]_[T-1C]_H3.2_A3.1_F3.1_T3.2]"
  pKd: 5.87
- binder: "UCUCUUUAUGUAUAUAUCUCUCUU (ssRNA) [Id_ii_S1_P3E.2_K3.1_C3.2_[C-2T]_[T-1A]_H3.1_A3.1_F3.1_T3.2_[A10C]]"
  pKd: 8.02
- binder: "Ie_S4_P5E.1_K5.1_C5.1_H5.1_A5.1_[+6TTCC]_F5.1_T5.1 (ssRNA) RNA: UUUGACAACUGAUCGUUCUUUCUUGUAUUUUCCAUUAUUCUUUCUCGAUCAGUUGUCUUU"
  pKd: 7.72
- binder: "Ic_S2_P5E.1_K5.1_C5.1_H5.1_A5.1_[T5C]_[T6A]_[A7C]_F5.1_[T9G]_[A10G]_T5.1 (ssRNA) RNA: UUUGAUUAAUAUGAUAUCGUUCUUUCUUGUACACUGGUUCUUUCUCGAUAUCAUAUUAAUCUUU"
  pKd: 8.32

With those in mind, consider the next binder.
Return reported pKd; argument: ACAAACUGUCUAUUACAAAC (ssRNA) [Ib_S3_P3E.1_K3.1_C3.1_H3.1_[A4C]_A3.1_F3.1_[A8T]_T3.1]
6.94
